All values here come from patent US7060670B1.

Molecular target: Aβ(1–40) (Homo sapiens)
Construct: Aβ (1–40) 95% purity (American Peptide Company); purchased American Peptide Company, Inc 62-0-78
Sequence (P05067 672-711 limits assumed): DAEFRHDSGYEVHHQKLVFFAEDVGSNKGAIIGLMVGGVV
Test: thioflavin T fluorescence assay for fibrillogenesis of Aβ(1–40)
Format: biochemical
Conditions: rank, 1 = strongest activity, 11 = weakest; peptide 80 μM, Aβ(1–40) 20 μM; by first appearance of fluorescence over 5-90 hours
Non-standard residues stand in square brackets, D forms with d. No end group written: not given here.
RECORDED_METRIC: Order Of Potency of Peptide Inhibitors, Tested at 80 μM

Read the entry Lys-Leu-Val-Phe-Phe-Ala [(D) KLVFFA] ([dK][dL][dV][dF][dF][dA]) and write its reported Order Of Potency of Peptide Inhibitors, Tested at 80 μM.
1 (D) KLVFFA

Read the entry Lys-Leu-Val-Phe-Phe [(D) KLVFF] and write its reported Order Of Potency of Peptide Inhibitors, Tested at 80 μM.
10 (D) KLVFF

Read the entry AFFVLK [reference compound] and write its reported Order Of Potency of Peptide Inhibitors, Tested at 80 μM.
11 (L) AFFVLK

Read the entry KLVFFA [reference compound] and write its reported Order Of Potency of Peptide Inhibitors, Tested at 80 μM.
8 (L) KLVFFA

Read the entry Lys-Ile-Val-Phe-Phe-Ala ([dK][dI][dV][dF][dF][dA]) [(D) KIVFFA] and write its reported Order Of Potency of Peptide Inhibitors, Tested at 80 μM.
5 (D) KIVFFA

Read the entry Lys-Leu-Val-Phe ([dK][dL][dV][dF]) [(D) KLVF] and write its reported Order Of Potency of Peptide Inhibitors, Tested at 80 μM.
9 (D) KLVF

Read the entry Lys-Lys-Leu-Val-Phe-Phe-Ala [(D) KKLVFFA] ([dK][dK][dL][dV][dF][dF][dA]) and write its reported Order Of Potency of Peptide Inhibitors, Tested at 80 μM.
1 (D) KKLVFFA

Read the entry Lys-Phe-Val-Phe-Phe-Ala ([dK][dF][dV][dF][dF][dA]) [(D) KFVFFA] and write its reported Order Of Potency of Peptide Inhibitors, Tested at 80 μM.
1 (D) KFVFFA

Read the entry Ala-Phe-Phe-Val-Leu-Lys [(D) AFFVLK] ([dA][dF][dF][dV][dL][dK]) and write its reported Order Of Potency of Peptide Inhibitors, Tested at 80 μM.
1 (D) AFFVLK

Read the entry KKLVFFA [reference compound] and write its reported Order Of Potency of Peptide Inhibitors, Tested at 80 μM.
7 (L) KKLVFFA

Read the entry Lys-Ala-Val-Phe-Phe-Ala ([dK][dA][dV][dF][dF][dA]) [(D) KAVFFA] and write its reported Order Of Potency of Peptide Inhibitors, Tested at 80 μM.
6 (D) KAVFFA

###

Biological target: Aβ(1–40) (Homo sapiens)
Construct: Aβ (1–40) 95% purity (American Peptide Company); purchased American Peptide Company, Inc 62-0-78
Test: thioflavin T fluorescence assay for fibrillogenesis of Aβ(1–40)
Assay type: biochemical
Settings: rank, 1 = strongest activity, 11 = weakest; peptide 20 μM, Aβ(1–40) 20 μM; by first appearance of fluorescence over 5-90 hours
Source text: The thioflavin T fluorescence assay for fibrillogenesis is based on the principle that the fluorescent dye, thioflavin T, binds specifically to fibrillar, but not to unaggregated Aβ peptide (LeVine III, H., 1993, Protein Science 2:404–410). Upon binding, thioflavin T develops a characteristic fluorescence (Naiki, H., et al., 1996, Lab. Invest. 74: 374–383) which can be easily detected. […] Readings (ex 430 nm/em 485 nm) are taken at various time intervals with a microplate fluorescence reader. […]
Non-standard residues stand in square brackets, D forms with d. No end group written: not given here.
Answer each item with its documented Order Of Potency of Peptide Inhibitors, Tested at 20 μM.

Read the entry AFFVLK [reference compound] and write its reported Order Of Potency of Peptide Inhibitors, Tested at 20 μM.
11 (L) AFFVLK

Read the entry KKLVFFA [reference compound] and write its reported Order Of Potency of Peptide Inhibitors, Tested at 20 μM.
10 (L) KKLVFFA

Read the entry Lys-Leu-Val-Phe-Phe [(D) KLVFF] and write its reported Order Of Potency of Peptide Inhibitors, Tested at 20 μM.
9 (D) KLVFF

Read the entry Lys-Leu-Val-Phe-Phe-Ala [(D) KLVFFA] ([dK][dL][dV][dF][dF][dA]) and write its reported Order Of Potency of Peptide Inhibitors, Tested at 20 μM.
3 (D) KLVFFA

Read the entry Lys-Phe-Val-Phe-Phe-Ala ([dK][dF][dV][dF][dF][dA]) [(D) KFVFFA] and write its reported Order Of Potency of Peptide Inhibitors, Tested at 20 μM.
4 (D) KFVFFA

Read the entry Lys-Lys-Leu-Val-Phe-Phe-Ala [(D) KKLVFFA] ([dK][dK][dL][dV][dF][dF][dA]) and write its reported Order Of Potency of Peptide Inhibitors, Tested at 20 μM.
2 (D) KKLVFFA

Read the entry Lys-Ile-Val-Phe-Phe-Ala ([dK][dI][dV][dF][dF][dA]) [(D) KIVFFA] and write its reported Order Of Potency of Peptide Inhibitors, Tested at 20 μM.
1 (D) KIVFFA

Read the entry Lys-Leu-Val-Phe ([dK][dL][dV][dF]) [(D) KLVF] and write its reported Order Of Potency of Peptide Inhibitors, Tested at 20 μM.
6 (D) KLVF

Read the entry Ala-Phe-Phe-Val-Leu-Lys [(D) AFFVLK] ([dA][dF][dF][dV][dL][dK]) and write its reported Order Of Potency of Peptide Inhibitors, Tested at 20 μM.
5 (D) AFFVLK

Read the entry KLVFFA [reference compound] and write its reported Order Of Potency of Peptide Inhibitors, Tested at 20 μM.
8 (L) KLVFFA

Read the entry Lys-Ala-Val-Phe-Phe-Ala ([dK][dA][dV][dF][dF][dA]) [(D) KAVFFA] and write its reported Order Of Potency of Peptide Inhibitors, Tested at 20 μM.
7 (D) KAVFFA
